system: RXRa DBDmut IVT, anti-RXR (DBD mutation: RXRa K156A/R161A, NR concentration 90 nM); experiment: PBM binding z-score (relative to random genomic background probes); higher = stronger binding; sequences stand for … in GC…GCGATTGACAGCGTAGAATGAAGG
assay-readout: PBM binding z-score

>>> numeric_readout("CATACAGGGTCAGCTAGGGCAGAGTAGGGACGGC")
1.33
>>> numeric_readout("TCTCGGAGGACACGAAAGGTCCGAGCTCGACATC")
0.605
>>> numeric_readout("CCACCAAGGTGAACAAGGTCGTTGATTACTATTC")
1.32
>>> numeric_readout("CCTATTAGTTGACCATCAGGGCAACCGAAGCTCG")
0.518
>>> numeric_readout("TTACCAAGGTGAGCTGGGGTCGTTGATCCAACTC")
-0.222
>>> numeric_readout("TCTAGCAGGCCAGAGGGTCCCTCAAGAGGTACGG")
-0.214
>>> numeric_readout("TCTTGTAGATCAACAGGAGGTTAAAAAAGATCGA")
0.247
>>> numeric_readout("GCGACTGGGGCATCAGCAGGCTACCATAACTTAA")
-0.185
>>> numeric_readout("CGAACTAGGTCAAGGACGGTGAATCTCCGCACGC")
0.975
>>> numeric_readout("TAGCCTAGGTAATGCGGGCCAGTATAGTGTCGGC")
-1.3
>>> numeric_readout("CATACAGGGTCAGCTAGGCGAGAGTAGGGACGGC")
1.72
>>> numeric_readout("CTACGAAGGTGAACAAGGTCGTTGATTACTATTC")
1.51
